Reported Mean relative activity values for a set of molecules
System: K562 CRISPRi cells
ASSAY_NAME: Constant region variant library pooled growth screen, K562
Type: cell-based, human
TEST_PARAMETERS: sgRNA constant region variants; activity relative to the original, un-modified constant region cr995
Number only, no unit.

Example cases with answers are listed next.
cr859 (nucleic acid, listed as DNA, chemistry not fully specified) guide: GTTTAAGAGCTAAGCTGGAAACAGCATACCAAGTTTAAATAAGGCTTGTCCGTTATCAACTTGAGAAAGTGGCACCGAGTCGGTGCT	0.7625
cr943 (nucleic acid, listed as DNA, chemistry not fully specified) guide: GTTTAAGAGCTAAGCTGGAAACAGCATAGCAAGTTTAAATAAGGCTAGTCCGTTATCAACTTGAAAAAGTGACAACGAGTCGTTGTT	0.8464
cr878 (nucleic acid, listed as DNA, chemistry not fully specified) guide: GTTTAAGAGCTAAGCTGGAAACAGCATAGCAAGTTTAAATAAGGTTAATCCGTTATCAATTTGAAAAAATGGCATCGAGTCGATGCT	0.847
cr959 (nucleic acid, listed as DNA, chemistry not fully specified) guide: GTTTAAGAGCTAAGCTGGAAACAGCATAGCAAGTTTAAATAAGGCTAGTCCGTTATCAATTCGAAATACTGGCACCGAGTCGGTGCT	0.5251
cr912 (nucleic acid, listed as DNA, chemistry not fully specified) guide: GTTTAAGAGCTAAGCTGGAAACAGCATAGCAAGCTTAAATGAGGCTAGTCCGGTATCAACTTGAAAAAGTGGCACCGAGTCGGTGCT	−1.05E−05
cr097 (nucleic acid, listed as DNA, chemistry not fully specified) guide: GCTTACGAGCTAAGCTGGAAACAGCATAGCAAGTTTAAATAAGGCTAGTCCGTTATCAACTTGAAAAAGTGGCACCGAGTCGGTGCT	0.06585

Alright, here's another molecule for you.
Which measured Mean relative activity value corresponds to cr234 (nucleic acid, listed as DNA, chemistry not fully specified) guide: GTTTAAGAGCTAAGCTGGAAACAGCATAGCAAGTTTAAATAAGGCTAGTCCGTTATCAACTCGAAAAAGTGGCACCGAGTCGGTGCT ?
1.075
